target-or-test-system: rNPFF2 (Rattus norvegicus)
Construct: expressed in transfected cells
procedure-details: Functional assay (agonist potency, intrinsic activity) at cloned rat NPFF2 receptor
Format: cell-based
test-context: percent of maximum response elicited by neuropeptide FF; rat NPFF2
experimental-readout: rNPFF2 IA (intrinsic activity) (% NPFF)

molecular-string	experimental-readout	measurement-unit	experimental-value
Cc1nc(NC(=N)N)nc2cc(OC(F)(F)F)ccc12	rNPFF2 IA (intrinsic activity)	% NPFF	78
CCCCCCc1ccc2nc(NC(=N)N)nc(C)c2c1	rNPFF2 IA (intrinsic activity)	% NPFF	81
Cc1nc(NC(=N)N)nc2cc3c(cc12)CCC3	rNPFF2 IA (intrinsic activity)	% NPFF	74
Cc1cc2nc(NC(=N)N)nc(C)c2cc1O	rNPFF2 IA (intrinsic activity)	% NPFF	23
CCCCOc1ccc2nc(NC(=N)N)nc(C)c2c1	rNPFF2 IA (intrinsic activity)	% NPFF	80

====

target-or-test-system: hNPFF2 (Homo sapiens, UniProt Q9Y5X5)
Sequence (Q9Y5X5 103-522): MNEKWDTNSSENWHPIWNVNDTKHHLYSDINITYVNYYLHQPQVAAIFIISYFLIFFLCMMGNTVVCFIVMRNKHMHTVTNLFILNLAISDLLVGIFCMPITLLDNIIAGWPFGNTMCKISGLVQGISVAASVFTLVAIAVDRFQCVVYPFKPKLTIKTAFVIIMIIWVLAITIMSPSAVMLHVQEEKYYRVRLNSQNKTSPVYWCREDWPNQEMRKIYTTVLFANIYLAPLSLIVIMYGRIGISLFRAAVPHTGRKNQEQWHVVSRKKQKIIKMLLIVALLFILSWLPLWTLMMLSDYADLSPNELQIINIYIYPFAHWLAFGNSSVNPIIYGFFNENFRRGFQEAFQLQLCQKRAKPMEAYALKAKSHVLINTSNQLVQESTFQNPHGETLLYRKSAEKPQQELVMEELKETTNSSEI
procedure-details: Functional assay (agonist potency, intrinsic activity) at cloned human NPFF2 receptor
test-context: recombinant human NPFF2
Listed here are compounds together with their documented EC50.

compound	EC50
Cc1ccc2c(C)nc(NC(=N)N)nc2c1 [Compound 3001, N-(4,7-dimethyl-2-quinazolinyl)guanidine]	> 10 µM
Cc1ccc2c(C)cc(NC(=N)N)nc2c1 [Compound 4006, N-(4,7-dimethyl-2-quinolinyl)guanidine]	> 10 µM
Cc1cc(NC(=N)N)nc2ccccc12 [Compound 6001, N-(4-methyl-2-quinolinyl)guanidine]	> 10 µM

====

Listed here are compounds together with their documented Ki.
target-or-test-system: UniProt:Q9EP86
Sequence (Q9EP86 whole entry): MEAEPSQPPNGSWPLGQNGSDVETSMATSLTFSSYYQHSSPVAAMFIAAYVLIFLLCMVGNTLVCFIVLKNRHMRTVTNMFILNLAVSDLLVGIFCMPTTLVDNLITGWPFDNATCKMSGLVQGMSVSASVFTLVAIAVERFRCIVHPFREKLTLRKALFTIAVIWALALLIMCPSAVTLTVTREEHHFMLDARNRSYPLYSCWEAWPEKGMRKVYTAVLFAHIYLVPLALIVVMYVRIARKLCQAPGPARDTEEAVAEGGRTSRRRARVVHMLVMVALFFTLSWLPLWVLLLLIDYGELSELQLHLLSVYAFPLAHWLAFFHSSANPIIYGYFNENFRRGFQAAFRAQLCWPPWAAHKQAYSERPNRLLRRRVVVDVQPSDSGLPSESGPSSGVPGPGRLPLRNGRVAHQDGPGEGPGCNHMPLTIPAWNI
procedure-details: Binding affinity at cloned recombinant rat NPFF1 receptor

compound	Ki / nM
Cc1nc(NC(=N)N)nc2cc(F)c(F)cc12 [Compound 1019]	57
CCCCc1ccc2nc(NC(=N)N)nc(C)c2c1 [Compound 2004]	392
Cc1nc(NC(=N)N)nc2ccc3ccccc3c12 [Compound 1007]	146
Cc1nc(NC(=N)N)nc2ccc(Oc3ccccc3)cc12 [Compound 1032]	291
CCCc1ccc2nc(NC(=N)N)nc(C)c2c1 [Compound 1008]	155
CCCCCc1ccc2nc(NC(=N)N)nc(C)c2c1 [Compound 2001]	8
Cc1nc(NC(=N)N)nc2ccc(OCc3ccccc3)cc12 [Compound 1028]	386
Cc1cc2nc(NC(=N)N)nc(C)c2cc1O [Compound 1017]	234

====

target-or-test-system: rNPFF2 (Rattus norvegicus, UniProt Q9EQD2)
Sequence (Q9EQD2 whole entry): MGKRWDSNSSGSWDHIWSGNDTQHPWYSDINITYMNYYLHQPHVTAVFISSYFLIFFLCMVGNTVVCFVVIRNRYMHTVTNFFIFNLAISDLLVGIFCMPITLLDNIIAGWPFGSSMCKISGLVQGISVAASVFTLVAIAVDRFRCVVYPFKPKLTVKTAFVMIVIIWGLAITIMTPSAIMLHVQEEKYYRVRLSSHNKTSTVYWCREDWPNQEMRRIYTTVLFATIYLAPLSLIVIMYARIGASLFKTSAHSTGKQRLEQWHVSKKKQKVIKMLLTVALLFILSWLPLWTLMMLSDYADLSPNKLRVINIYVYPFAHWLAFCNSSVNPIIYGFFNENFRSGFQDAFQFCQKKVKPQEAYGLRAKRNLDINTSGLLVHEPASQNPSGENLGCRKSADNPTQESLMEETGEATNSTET
procedure-details: Binding affinity at cloned recombinant rat NPFF2 receptor
Listed here are compounds together with their documented Ki.

compound	measurement-unit	modifier	Ki
Cc1nc(NC(=N)N)nc2ccc(Br)cc12 [Compound 1026]	µM	>	10
Cc1cc(NC(=N)N)nc2ccc(Cl)cc12 [Compound 4005]	µM	=	0.282
Cc1nc(NC(=N)N)nc2ccc(Cc3ccccc3)cc12 [Compound 2003]	µM	=	0.195
Cc1nc(NC(=N)N)nc2cc(OCc3ccccc3)ccc12 [Compound 1006]	µM	=	1.07
CCCCc1ccc2nc(NC(=N)N)nc(C)c2c1 [Compound 2004]	µM	=	0.262
Cc1nc(NC(=N)N)nc2cc(OC(F)(F)F)ccc12 [Compound 1036]	µM	=	2.46
Cc1nc(NC(=N)N)nc2ccc(-c3ccccc3)cc12 [Compound 1010]	µM	=	3.48
Cc1nc(NC(=N)N)nc2cc3c(cc12)C=CCC3 [Compound 1037]	µM	=	0.824
CCc1ccc2nc(NC(=N)N)nc(C)c2c1 [Compound 1003]	µM	=	1.64
Cc1ccc2c(C)nc(NC(=N)N)nc2c1 [Compound 3001, N-(4,7-dimethyl-2-quinazolinyl)guanidine]	µM	=	1.22
CCCCCCc1ccc2nc(NC(=N)N)cc(C)c2c1 [Compound 5003]	µM	=	4.42
CCCCCc1ccc2nc(NC(=N)N)cc(C)c2c1 [Compound 5002]	µM	=	0.569
Cc1nc(NC(=N)N)nc2ccc(OCc3ccccc3)cc12 [Compound 1028]	µM	=	0.817
Cc1nc(NC(=N)N)nc2cc(C(C)C)ccc12 [Compound 1021]	µM	=	0.881
Cc1ccc(Oc2ccc3nc(NC(=N)N)nc(C)c3c2)cc1 [Compound 1033]	µM	=	5.86

Provenance of the data: patent US20030139431A1
